Listed here are compounds together with their documented melting point.

{"compound": "COc1cc(C(=O)C(C)C)ccc1O", "melting point": "86 to 87 °C"}
{"compound": "C[Si](C)(C)c1sc(C=O)cc1Oc1ccccc1", "melting point": "120 to 122 °C"}
{"compound": "CCOC(=O)c1ccc2c(c1)c(C)c(CBr)n2C(C)=O", "melting point": "125 to 130 °C"}
{"compound": "CCOc1cc2c(cc1O)C(C(Cl)(Cl)Cl)OC2=O (centres undefined)", "melting point": "143 to 144 °C"}
{"compound": "CC(C)(C)C12OOC1(c1cc3cc(O[Si](C)(C)C(C)(C)C)ccc3o1)OCC2(C)C (centres undefined)", "melting point": "117 to 118 °C"}
{"compound": "Nc1ccc2c(c1)S(=O)(=O)N(CCCCN1CCN(c3ncccn3)CC1)C2=O", "melting point": "150 to 151 °C"}
{"compound": "Cc1cccc2c(=O)[nH]c(C3CCN(CCCO)CC3)cc12", "melting point": "197 to 199 °C"}
{"compound": "CSc1ncc(F)c(NCc2ccccc2F)n1", "melting point": "144 to 146 °C"}
{"compound": "CNC(=O)c1cccc(Oc2ncccc2C(=O)NCc2ccccc2)c1", "melting point": "164 to 167 °C"}

###

{"compound": "COC(=O)C1CC(=O)n2c3c(c4cc(F)ccc42)CCNC31 (centres undefined)", "melting point": "172 °C"}
{"compound": "Cc1c(C(N)=O)oc2ccc(Cc3cccnc3)cc12", "melting point": "175 to 177 °C"}
{"compound": "COC(=O)[C@H](Cc1ccccc1)NC(=O)[C@H](Cc1ccccc1)NC(=S)Cc1ccc(C)cc1", "melting point": "115 to 117 °C"}
{"compound": "CCc1ncnc(NC(CC)c2ccc(Oc3ncccn3)cc2)c1Cl (centres undefined)", "melting point": "100 to 112 °C"}
{"compound": "CC(C)Nc1cccnc1N1CCN(C(=O)c2ccc(C(=O)NCCc3cccs3)cn2)CC1", "melting point": "131 to 134 °C"}
{"compound": "COc1ccc2nc(SCc3nccc(N4CCOCC4)c3Cl)[nH]c2n1", "melting point": "210 °C"}
{"compound": "CCOCCNC(=O)Oc1cccc(NC(=O)C=C(C)OC)c1", "melting point": "133 to 134 °C"}
{"compound": "COC(=O)C(O)c1ccc([N+](=O)[O-])cc1 (centres undefined)", "melting point": "56 to 58 °C"}
{"compound": "CS(=O)c1ccc(S(=O)(=O)N2CCCC2=O)cc1 (centres undefined)", "melting point": "127 to 129 °C"}
{"compound": "COC(=O)c1ccccc1-n1c(CCl)nc2c(OC)cccc2c1=O", "melting point": "208 to 210 °C"}
{"compound": "C=CCc1c(O)ccc2ncccc12", "melting point": "162 to 164 °C"}
{"compound": "Cn1nnnc1-c1cn(C)c2cc(OC(F)F)ccc2c1=O", "melting point": "225 to 228 °C"}
{"compound": "O=C(c1ccc(-c2cccc(C(F)(F)F)c2)o1)N1Cc2c([nH]c3ccccc3c2=O)C1c1ccc2c(c1)OCO2 (centres undefined)", "melting point": "219 to 221 °C"}
{"compound": "CC(C)C(C(=O)O)c1ccc([N+](=O)[O-])cc1 (centres undefined)", "melting point": "124 to 127 °C"}
{"compound": "CCC(=O)NC[C@@H]1C[C@H]1c1cccc2nn(C)cc12 (relative stereo)", "melting point": "79 to 80 °C"}
{"compound": "COc1ccccc1N1CCN(C(=O)[C@H](N)Cc2cccnc2)CC1", "melting point": "> 240 °C"}
{"compound": "O=CN(O)C(CO)CS(=O)(=O)c1ccc(-c2ccc(Cl)cc2)cc1 (centres undefined)", "melting point": "153 to 154 °C"}
{"compound": "COc1c(C(C)=O)cnc2c([N+](=O)[O-])cccc12", "melting point": "100 to 105 °C"}
{"compound": "CCOP(=O)(C=Cc1ccc(N)cc1)OCC", "melting point": "81 °C"}
{"compound": "COc1ccc(-c2ccc(CCNC(=O)c3cc(Cl)ccc3OC)cc2S(N)(=O)=O)cc1", "melting point": "205 to 208 °C"}
{"compound": "COc1ccc2cccc(CCOS(=O)(=O)c3ccccc3)c2c1", "melting point": "61.8 to 63 °C"}
{"compound": "CN1CCN2c3ccc([N+](=O)[O-])cc3C(c3cccs3)=NCC2C1 (centres undefined)", "melting point": "174 to 175 °C"}
{"compound": "CCOC1=CC2=CCC3C(CCC4(C)C3CCC4(C)C(C)=O)C2(C)CC1 (centres undefined)", "melting point": "114 to 116 °C"}
{"compound": "O=C(O)[C@@H]1C[C@H]2C[C@@H](CCc3cc(O)no3)CC[C@H]2CN1 (racemic)", "melting point": "256 °C"}
{"compound": "CCCCC(CNc1nc(C)c(O)c(C(C)C)n1)c1ccccc1 (centres undefined)", "melting point": "60 to 61 °C"}
{"compound": "CCOC(=O)C1SCCc2cc(OC)c(OC)cc21 (centres undefined)", "melting point": "96 to 98 °C"}
{"compound": "Cc1cc2c(c(C)c1S(=O)(=O)C[N+](=O)[O-])CCCC(C)(C)O2", "melting point": "100 to 101 °C"}
{"compound": "CCN1CC(NC(=O)c2ccc(F)cc2)CN1CC", "melting point": "114 to 116 °C"}
{"compound": "CCCCOC(=O)S(=O)(=O)Nc1sc(CC(C)C)cc1-c1ccc(Cn2c(-c3ccccc3)nc(OC)c2C=O)c(Cl)c1", "melting point": "58 °C"}
{"compound": "CCOC(=O)c1cc(=O)c2c(OCC(O)COc3cccc(C)c3)cccc2o1 (centres undefined)", "melting point": "72 to 74 °C"}
{"compound": "CCn1nc(OCC(=O)C(C)(C)C)c(-c2ccc(F)cc2)c1-c1ccc(S(C)(=O)=O)cc1", "melting point": "144 to 146 °C"}
{"compound": "COc1ccc2ccc(N3C(=O)c4ccccc4C3OCC(=O)N(C)C)nc2n1 (centres undefined)", "melting point": "166 °C"}
{"compound": "COC(=O)c1ccc(OC)c(OC)c1N", "melting point": "66 to 67 °C"}
{"compound": "CS(=O)c1nnc(-c2ccc3ncn(-c4ccc(OC(F)F)cc4)c3c2)o1 (centres undefined)", "melting point": "135 to 136 °C"}

Reference for the values: a melting point compilation (Tetko et al.; mined from patent text by program, amines drawn as free bases though some values may be those of a salt)
